biological target: Histamine H1 receptor (Homo sapiens) (UniProt P35367); assay: Inhibition of histamine H1 receptor (unknown origin) at 10 uM
Sequence (P35367 whole entry): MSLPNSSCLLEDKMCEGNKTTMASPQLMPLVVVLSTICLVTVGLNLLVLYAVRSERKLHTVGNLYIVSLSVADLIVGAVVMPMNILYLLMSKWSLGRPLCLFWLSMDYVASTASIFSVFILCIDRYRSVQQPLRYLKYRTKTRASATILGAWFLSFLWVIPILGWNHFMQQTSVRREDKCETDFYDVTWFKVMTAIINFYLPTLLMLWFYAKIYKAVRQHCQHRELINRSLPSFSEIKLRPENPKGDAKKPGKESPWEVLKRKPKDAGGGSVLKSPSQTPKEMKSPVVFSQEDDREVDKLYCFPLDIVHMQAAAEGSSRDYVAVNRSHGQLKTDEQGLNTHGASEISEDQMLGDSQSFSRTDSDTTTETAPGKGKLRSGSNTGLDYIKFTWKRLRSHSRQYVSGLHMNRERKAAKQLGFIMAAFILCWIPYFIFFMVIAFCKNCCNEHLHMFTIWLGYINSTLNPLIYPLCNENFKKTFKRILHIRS
Could you label it label 1 if measured inhibition is 60% or higher, and label 0 otherwise?

Known results for compounds:
| Compound | Assigned class |
| --- | --- |
| CN(C)CC(=O)N1CCC2(CC1)C(=O)Nc1cc(/C=C3\c4ccccc4COc4cc(F)ccc43)ccc12 | label 1 |
| C[N+]1([O-])CCC2(CC1)C(=O)Nc1cc(/C=C3\c4ccccc4COc4cc(F)ccc43)ccc12 (centres undefined) | label 1 |
| CN1CCC2(CC1)C(=O)Nc1cc(/C=C3\c4ccccc4COc4cc(F)ccc43)ccc12 | label 1 |
| O=C1COc2ccc(/C=C3\c4ccccc4COc4cc(F)ccc43)cc2N1 | label 0 |

# input Dear colleague, could you confirm whether `CC1(C)OC(=S)Nc2ccc(S(=O)(=O)N3c4ccccc4COc4cc(F)ccc43)cc21` has inhibition at or above 60%?
# output label 0

# input Check the entry `O=c1[nH]c2cc(/C=C3\c4ccccc4COc4cc(F)ccc43)ccc2n1[C@@H]1C[C@@H]2COCCN2C1` : does inhibition equal or exceed 60%?
# output label 0

# input Record `O=C1COc2ccc(CN3c4ccccc4COc4cc(F)ccc43)cc2N1` ; criterion: inhibition no lower than 60%. Met?
# output label 0

# input Form field: inhibition at least 60%? Entry: `O=C1COc2ccc(S(=O)(=O)N3c4ccccc4COc4cc(F)ccc43)cc2N1`
# output label 0

---

Form: system (Mineralocorticoid receptor (Homo sapiens, UniProt P08235, C808S)), quantity (pIC50), values below.
Units for pIC50: none; it is -log10 of a concentration expressed in mol/L.

| Molecule | Reported property | Obs value |
| --- | --- | --- |
| OC1CCc2c(/C=C3\c4ccccc4COc4cc(F)ccc43)cccc21 (stereo not drawn) | pIC50 | 6.50 |

# input I am curious: what pIC50 value has been reported for `O=C(O)CCN1CCC2(CC1)C(=O)Nc1cc(/C=C3\c4ccccc4COc4cc(F)ccc43)ccc12` ?
# output 7.54

---

Assay system Glucocorticoid receptor (Homo sapiens); read-out recorded as pIC50.
pIC50: −log10 of the molar value.

| Compound | Reported property | Obs value |
| --- | --- | --- |
| C[N+]1([O-])CCC2(CC1)C(=O)Nc1cc(/C=C3\c4ccccc4COc4cc(F)ccc43)ccc12 (stereo not drawn) | pIC50 | < 4.43 |

# input Param readout= pIC50; system= Glucocorticoid receptor (Homo sapiens); entry= `O=C(O)CCN1CCC2(CC1)C(=O)Nc1cc(/C=C3\c4ccccc4COc4cc(F)ccc43)ccc12` ; returns value.
# output < 4.92

# input Could you share what pIC50 was measured for `CC1(C)OC(=S)Nc2ccc(S(=O)(=O)N3c4ccccc4COc4cc(F)ccc43)cc21` , tested on Glucocorticoid receptor (Homo sapiens)?
# output 6.19

---

target: Alpha-2A adrenergic receptor (Homo sapiens) (UniProt P08913); assay: Inhibition of adrenergic alpha2A receptor (unknown origin) at 10 uM
Sequence (P08913 whole entry): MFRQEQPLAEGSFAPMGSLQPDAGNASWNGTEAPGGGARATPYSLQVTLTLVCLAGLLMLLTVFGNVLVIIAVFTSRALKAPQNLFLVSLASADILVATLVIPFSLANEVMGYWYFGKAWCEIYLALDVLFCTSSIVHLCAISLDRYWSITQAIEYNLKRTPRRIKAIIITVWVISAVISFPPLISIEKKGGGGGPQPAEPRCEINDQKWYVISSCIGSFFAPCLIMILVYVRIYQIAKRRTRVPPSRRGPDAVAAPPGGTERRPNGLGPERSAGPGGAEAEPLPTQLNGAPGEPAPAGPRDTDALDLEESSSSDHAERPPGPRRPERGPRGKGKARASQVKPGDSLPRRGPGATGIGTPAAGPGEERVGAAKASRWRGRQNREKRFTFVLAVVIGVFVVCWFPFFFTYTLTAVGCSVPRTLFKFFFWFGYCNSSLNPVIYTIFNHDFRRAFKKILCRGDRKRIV
Reported property: inhibition
Could you write the number and then its unit?

Recorded results for 5 compounds are shown here.
| Compound | inhibition |
| --- | --- |
| CC1(C)OC(=S)Nc2ccc(S(=O)(=O)N3c4ccccc4COc4cc(F)ccc43)cc21 | 85% |
| O=c1[nH]c2cc(/C=C3\c4ccccc4COc4cc(F)ccc43)ccc2n1[C@@H]1C[C@@H]2COCCN2C1 | 76% |
| O=C1COc2ccc(/C=C3\c4ccccc4COc4cc(F)ccc43)cc2N1 | 59% |
| C[N+]1([O-])CCC2(CC1)C(=O)Nc1cc(/C=C3\c4ccccc4COc4cc(F)ccc43)ccc12 (centres undefined) | 60% |
| O=C1COc2ccc(S(=O)(=O)N3c4ccccc4COc4cc(F)ccc43)cc2N1 | 24% |

Okay, next one:
# input Consider the compound shown here: `CN(C)CC(=O)N1CCC2(CC1)C(=O)Nc1cc(/C=C3\c4ccccc4COc4cc(F)ccc43)ccc12` What is its recorded inhibition?
# output 88%

---

Assay read-out IC50; system under study: UniProt P10635.
Sequence (P10635 whole entry): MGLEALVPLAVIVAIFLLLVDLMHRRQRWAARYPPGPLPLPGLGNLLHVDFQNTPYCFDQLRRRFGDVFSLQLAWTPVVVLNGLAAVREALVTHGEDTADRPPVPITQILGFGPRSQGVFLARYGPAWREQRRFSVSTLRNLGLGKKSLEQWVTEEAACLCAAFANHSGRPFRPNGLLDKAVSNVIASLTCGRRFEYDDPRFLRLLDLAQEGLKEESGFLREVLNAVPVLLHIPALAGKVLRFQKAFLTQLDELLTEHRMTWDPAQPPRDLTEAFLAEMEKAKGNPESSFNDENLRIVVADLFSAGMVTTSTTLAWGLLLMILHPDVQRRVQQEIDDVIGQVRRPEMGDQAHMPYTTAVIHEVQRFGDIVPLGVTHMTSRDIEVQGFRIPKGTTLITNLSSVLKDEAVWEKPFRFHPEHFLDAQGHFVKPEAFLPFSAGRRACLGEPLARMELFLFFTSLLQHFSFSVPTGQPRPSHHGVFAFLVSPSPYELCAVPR
Reply numerically in µM, unit not repeated.

A selection of reference data follows.
| Chem smiles | Tested target | Reported property | Obs value |
| --- | --- | --- | --- |
| CN1CCC2(CC1)C(=O)Nc1cc(/C=C3\c4ccccc4COc4cc(F)ccc43)ccc12 | UniProt P10635 | IC50 | 7.62 |
| O=C(O)CCN1CCC2(CC1)C(=O)Nc1cc(/C=C3\c4ccccc4COc4cc(F)ccc43)ccc12 | UniProt P10635 | IC50 | 29.9 |
| CC1(C)OC(=S)Nc2ccc(S(=O)(=O)N3c4ccccc4COc4cc(F)ccc43)cc21 | UniProt P10635 | IC50 | 4.1 |

# input # query: IC50 | item `CN(C)CC(=O)N1CCC2(CC1)C(=O)Nc1cc(/C=C3\c4ccccc4COc4cc(F)ccc43)ccc12` | system: UniProt P10635
# output 7.75

---

Listed compounds paired with reported pIC50
target: Mineralocorticoid receptor (Homo sapiens, UniProt P08235, C808S)
Sequence (P08235 whole entry C808S): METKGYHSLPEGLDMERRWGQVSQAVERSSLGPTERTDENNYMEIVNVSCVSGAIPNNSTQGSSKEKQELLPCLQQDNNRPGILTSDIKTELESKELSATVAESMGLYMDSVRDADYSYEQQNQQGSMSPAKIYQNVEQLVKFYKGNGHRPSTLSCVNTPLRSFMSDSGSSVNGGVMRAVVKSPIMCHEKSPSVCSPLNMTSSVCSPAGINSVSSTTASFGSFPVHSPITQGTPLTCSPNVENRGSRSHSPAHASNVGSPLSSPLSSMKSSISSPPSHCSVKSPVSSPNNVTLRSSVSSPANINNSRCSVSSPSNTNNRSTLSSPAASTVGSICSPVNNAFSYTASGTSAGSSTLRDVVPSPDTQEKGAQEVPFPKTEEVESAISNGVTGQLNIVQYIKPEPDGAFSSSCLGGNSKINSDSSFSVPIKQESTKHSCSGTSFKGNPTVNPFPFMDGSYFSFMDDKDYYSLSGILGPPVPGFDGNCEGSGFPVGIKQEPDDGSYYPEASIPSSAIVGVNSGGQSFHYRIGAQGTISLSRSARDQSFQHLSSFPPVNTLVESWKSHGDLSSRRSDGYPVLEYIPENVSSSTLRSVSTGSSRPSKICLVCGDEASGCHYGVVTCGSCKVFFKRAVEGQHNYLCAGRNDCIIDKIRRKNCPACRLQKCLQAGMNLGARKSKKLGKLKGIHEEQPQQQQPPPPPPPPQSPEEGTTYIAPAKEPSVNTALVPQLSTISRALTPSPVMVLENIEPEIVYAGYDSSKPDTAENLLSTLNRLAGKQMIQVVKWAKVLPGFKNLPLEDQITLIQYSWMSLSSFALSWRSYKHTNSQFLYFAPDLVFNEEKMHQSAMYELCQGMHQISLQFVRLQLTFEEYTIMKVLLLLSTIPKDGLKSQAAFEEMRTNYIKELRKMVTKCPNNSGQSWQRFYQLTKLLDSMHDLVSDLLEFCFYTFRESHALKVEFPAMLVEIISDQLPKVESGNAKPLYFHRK
pIC50 field: float, defined as -log10 of concentration (mol/L).

| Compound | pIC50 |
| --- | --- |
| CN1CCC2(CC1)C(=O)Nc1cc(/C=C3\c4ccccc4COc4cc(F)ccc43)ccc12 | 7.72 |
| O=C(c1ccc2c(c1)NC(=O)C21CCNCC1)N1c2ccccc2COc2cc(F)ccc21 | 5.31 |
| O=C1COc2ccc(S(=O)(=O)N3c4ccccc4COc4cc(F)ccc43)cc2N1 | 7.25 |
| O=C1COc2ccc(N(Cc3cccnc3)c3ccc(F)cc3)cc2N1 | 5.82 |
| O=C1COc2ccc(C#Cc3ccc(F)cc3F)cc2N1 | 6.11 |

# input Lab note: need pIC50 with Mineralocorticoid receptor (Homo sapiens, UniProt P08235, C808S) for entry `CN(C)CC(=O)N1CCC2(CC1)C(=O)Nc1cc(/C=C3\c4ccccc4COc4cc(F)ccc43)ccc12` , please look it up.
# output 8.22

# input // lookup pIC50 | system=Mineralocorticoid receptor (Homo sapiens, UniProt P08235, C808S) | key= `O=C1CCc2c(/C=C3\c4ccccc4COc4cc(F)ccc43)cccc21`
# output 6.83

# input # get_value(readout= pIC50, system= Mineralocorticoid receptor (Homo sapiens, UniProt P08235, C808S)) for `CN(Cc1ccc2c(c1)NC(=O)CO2)c1ccc(F)cc1F`
# output 6.51

---

Item-by-item account of IC50
biological target: Cytochrome P450 2C9 (Homo sapiens, UniProt P11712); experiment: Inhibition of CYP2C9 (unknown origin); assay type: ADME
Sequence (P11712 whole entry): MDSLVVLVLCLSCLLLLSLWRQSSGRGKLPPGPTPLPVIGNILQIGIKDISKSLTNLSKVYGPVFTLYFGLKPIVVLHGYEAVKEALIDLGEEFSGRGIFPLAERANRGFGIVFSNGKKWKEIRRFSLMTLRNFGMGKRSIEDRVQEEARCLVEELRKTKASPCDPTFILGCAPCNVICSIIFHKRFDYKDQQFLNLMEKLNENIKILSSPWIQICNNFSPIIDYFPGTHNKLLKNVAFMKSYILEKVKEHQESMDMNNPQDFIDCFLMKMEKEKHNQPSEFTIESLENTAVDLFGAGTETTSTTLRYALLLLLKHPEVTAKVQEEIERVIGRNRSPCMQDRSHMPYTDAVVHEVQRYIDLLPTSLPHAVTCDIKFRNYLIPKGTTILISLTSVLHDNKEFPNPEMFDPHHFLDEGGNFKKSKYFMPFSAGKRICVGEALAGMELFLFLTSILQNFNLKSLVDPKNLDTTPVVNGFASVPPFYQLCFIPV
Please reply with the bare figure in µM and do not write the unit itself.

| Compound | Tested target | IC50 [µM] |
| --- | --- | --- |
| O=C1COc2ccc(S(=O)(=O)N3c4ccccc4COc4cc(F)ccc43)cc2N1 | Cytochrome P450 2C9 (Homo sapiens, UniProt P11712) | 1.56 |
| O=C(O)CCN1CCC2(CC1)C(=O)Nc1cc(/C=C3\c4ccccc4COc4cc(F)ccc43)ccc12 | Cytochrome P450 2C9 (Homo sapiens, UniProt P11712) | 12.6 |
| C[N+]1([O-])CCC2(CC1)C(=O)Nc1cc(/C=C3\c4ccccc4COc4cc(F)ccc43)ccc12 (centres undefined) | Cytochrome P450 2C9 (Homo sapiens, UniProt P11712) | 17 |

Now for another entry.
# input IC50 lookup needed for `CN1CCC2(CC1)C(=O)Nc1cc(/C=C3\c4ccccc4COc4cc(F)ccc43)ccc12` , thanks.
# output 2.83

---

biological target: Cytochrome P450 3A4 (Homo sapiens)
Sequence (P08684 whole entry): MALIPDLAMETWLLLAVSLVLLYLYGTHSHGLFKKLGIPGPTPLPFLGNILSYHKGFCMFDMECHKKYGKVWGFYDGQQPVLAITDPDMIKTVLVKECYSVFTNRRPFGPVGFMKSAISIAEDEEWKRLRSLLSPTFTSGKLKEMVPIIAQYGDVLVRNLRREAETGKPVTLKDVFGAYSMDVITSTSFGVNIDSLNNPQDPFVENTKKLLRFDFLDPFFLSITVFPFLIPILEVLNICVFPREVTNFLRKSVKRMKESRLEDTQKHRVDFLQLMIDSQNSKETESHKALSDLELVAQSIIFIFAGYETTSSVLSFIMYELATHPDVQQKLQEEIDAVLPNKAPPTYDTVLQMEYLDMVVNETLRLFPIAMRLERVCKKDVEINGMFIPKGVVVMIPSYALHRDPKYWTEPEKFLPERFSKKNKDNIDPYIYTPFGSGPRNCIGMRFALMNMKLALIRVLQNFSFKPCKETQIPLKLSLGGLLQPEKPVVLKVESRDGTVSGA
Below, each entry is listed alongside its reported pIC50.
The read-out pIC50 is expressed as -log10 of concentration in moles per litre.

| Chem smiles | Tested target | Obs value |
| --- | --- | --- |
| CN(C)CC(=O)N1CCC2(CC1)C(=O)Nc1cc(/C=C3\c4ccccc4COc4cc(F)ccc43)ccc12 | Cytochrome P450 3A4 (Homo sapiens) | 5.32 |

# input Identify the measured pIC50 of `O=c1[nH]c2cc(/C=C3\c4ccccc4COc4cc(F)ccc43)ccc2n1[C@@H]1C[C@@H]2COCCN2C1` for Cytochrome P450 3A4 (Homo sapiens).
# output 5.24

# input Lab note: need pIC50 for `CN1CCC2(CC1)C(=O)Nc1cc(/C=C3\c4ccccc4COc4cc(F)ccc43)ccc12` on Cytochrome P450 3A4 (Homo sapiens), anyone have it?
# output 5.15

# input // fetch Cytochrome P450 3A4 (Homo sapiens) pIC50 for `O=C(O)CCN1CCC2(CC1)C(=O)Nc1cc(/C=C3\c4ccccc4COc4cc(F)ccc43)ccc12`
# output 4.59

---

assay: Half life of compound in rat liver microsomes; type: ADME
Reported property: half-life (min)
Entry rule: numbers only, all in min.

| Chem smiles | half-life (min) |
| --- | --- |
| O=c1[nH]c2cc(/C=C3\c4ccccc4COc4cc(F)ccc43)ccc2n1[C@@H]1C[C@@H]2COCCN2C1 | 34 |
| CN1CCC2(CC1)C(=O)Nc1cc(/C=C3\c4ccccc4COc4cc(F)ccc43)ccc12 | 31 |

Consider the record given below.
# input Entry `CN(C)CC(=O)N1CCC2(CC1)C(=O)Nc1cc(/C=C3\c4ccccc4COc4cc(F)ccc43)ccc12` has what half-life?
# output 53
